- assay notes: In vivo rat tissue biodistribution / neuroPK study, 4 h intravenous constant infusion
- Set-up: species or system Sprague-Dawley rats
- run conditions: Sprague-Dawley, rat, kidney, intravenous, 20 mg/kg, rat, 4 h iv constant infusion 20 mg/kg, n=3; read-out: Total concentration in kidney

{"columns": ["compound", "concentration at 4 h [ng/g]"],
 "data": [
  ["NC(=O)C[S@@+]([O-])C(c1ccccc1)c1ccccc1 [R-modafinil, reference compound]", 2540],
  ["[O-][S@@+](Cc1cncs1)C(c1ccccc1)c1ccccc1", 1780]
]}

* * *

- assay notes: NeuroPK parameters by Combinatory Mapping Approach
- Format: in vivo
- run conditions: Sprague-Dawley, brain interstitial fluid, intravenous, 20 mg/kg; rat, steady state, Equation (6); read-out: Unbound-drug concentration in brain interstitial fluid, Cu,brainISF
Below, each entry is listed alongside its reported concentration at 4 h.
readout: concentration at 4 h (nM)

{"columns": ["compound", "assay result"],
 "data": [
  ["NC(=O)C[S@@+]([O-])C(c1ccccc1)c1ccccc1 [R-modafinil, reference compound]", 282],
  ["[O-][S@@+](Cc1cncs1)C(c1ccccc1)c1ccccc1 [S-CE-123]", 386]
]}

* * *

- assay notes: NeuroPK parameters by Combinatory Mapping Approach
- Type: in vivo
- run conditions: Sprague-Dawley, brain, intravenous, 20 mg/kg; rat, extent of BBB transport, Equation (4); read-out: Unbound brain-to-plasma concentration ratio, Kp,uu,brain
Below, each entry is listed alongside its reported Kp uu at 4 h.
readout: Kp uu at 4 h

{"columns": ["molecule", "readout", "assay result"],
 "data": [
  ["[O-][S@@+](Cc1cncs1)C(c1ccccc1)c1ccccc1 [S-CE-123]", "Kp uu at 4 h", 0.5],
  ["NC(=O)C[S@@+]([O-])C(c1ccccc1)c1ccccc1 [R-modafinil, reference compound]", "Kp uu at 4 h", 0.1]
]}

* * *

- assay notes: In vivo rat tissue biodistribution / neuroPK study, 4 h intravenous constant infusion
- Parameters: species or system Sprague-Dawley rats
- run conditions: Sprague-Dawley, rat, plasma, intravenous, 20 mg/kg, rat, 4 h iv constant infusion 20 mg/kg, n=3; read-out: Total concentration in plasma
Below, each entry is listed alongside its reported concentration at 4 h.
readout: concentration at 4 h (ng/mL)

{"columns": ["compound", "measurement unit", "assay result"],
 "data": [
  ["NC(=O)C[S@@+]([O-])C(c1ccccc1)c1ccccc1 [R-modafinil, reference compound]", "ng/mL", 1010],
  ["[O-][S@@+](Cc1cncs1)C(c1ccccc1)c1ccccc1", "ng/mL", 1050]
]}

* * *

- assay notes: In vivo rat tissue biodistribution / neuroPK study, 4 h intravenous constant infusion
- Design: species or system Sprague-Dawley rats
- run conditions: Sprague-Dawley, rat, brain, intravenous, 20 mg/kg, rat, 4 h iv constant infusion 20 mg/kg, n=3; read-out: Total concentration in brain
Below, each entry is listed alongside its reported concentration at 4 h.

{"columns": ["compound", "measurement unit", "concentration at 4 h"],
 "data": [
  ["NC(=O)C[S@@+]([O-])C(c1ccccc1)c1ccccc1 [R-modafinil, reference compound]", "ng/g", 448],
  ["[O-][S@@+](Cc1cncs1)C(c1ccccc1)c1ccccc1", "ng/g", 820]
]}

Data origin, for the record: paper PMC10707468
